System: P. aeruginosa PAOUW∆oprF
method-description: MIC, CLSI broth microdilution in BD Phoenix AST Broth
Format: cell-based, Pseudomonas aeruginosa
experimental-setup: strain PAOUWΔoprF (printed PAOΔoprF); antibiotic with RW01 at 100 mg/L
attribute-measured: FICI

INSERT INTO results (compound, value_observed) VALUES
  ('CN(C)c1cc(NC(=O)CNC(C)(C)C)c(O)c2c1C[C@H]1C[C@H]3[C@H](N(C)C)C(O)=C(C(N)=O)C(=O)[C@@]3(O)C(O)=C1C2=O [Tigecycline, tigecycline]', 0.223),
  ('CN(C)c1ccc(O)c2c1C[C@H]1C[C@H]3[C@H](N(C)C)C(O)=C(C(N)=O)C(=O)[C@@]3(O)C(O)=C1C2=O [Minocycline, minocycline]', 0.223),
  ('C[C@H]1c2cccc(O)c2C(=O)C2=C(O)[C@]3(O)C(=O)C(C(N)=O)=C(O)[C@@H](N(C)C)[C@@H]3[C@@H](O)[C@@H]21 [Doxycycline, doxycycline]', 0.160),
  ('CN(C)[C@@H]1C(O)=C(C(N)=O)C(=O)[C@@]2(O)C(O)=C3C(=O)c4c(O)cccc4[C@@](C)(O)[C@H]3C[C@@H]12 [Tetracycline, tetracycline]', 0.223);
